- tested.target: c-IAP1 (Homo sapiens, UniProt Q13490)
- Sequence (Q13490 251-363): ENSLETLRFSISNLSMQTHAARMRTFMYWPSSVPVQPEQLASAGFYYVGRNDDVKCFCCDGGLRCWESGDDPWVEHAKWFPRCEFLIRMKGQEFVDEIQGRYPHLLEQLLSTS
pKi: −log10 of the molar value.
pKi values, listed per item

Some solved cases for reference:
>>> recorded_measurement("CN[C@@H](C)C(=O)N[C@H](C(=O)N1C[C@@H](NC(=O)c2ccccc2)C[C@H]1CN(CCc1ccc(F)cc1)C(=O)c1cn2cccnc2n1)C(C)(C)C [Compound 49]")
"> 7.60"
>>> recorded_measurement("CCO[C@H](C)[C@H](NC(=O)[C@H](C)NC)C(=O)N1CCC[C@H]1CN(CCc1ccc(F)cc1)C(=O)c1cn2cc(F)cnc2n1 [Compound 80]")
"> 7.60"

Next molecule, please.
Provide c-IAP1 (Homo sapiens, UniProt Q13490) pKi reading for CN[C@@H](C)C(=O)N[C@H](C(=O)N1CCC[C@H]1CN(CCc1ccc(F)cc1)C(=O)c1cn2cccnc2n1)C(C)(C)C [Compound 10] .
> 7.60

* * *

Below are pKi values measured for UniProt P98170.
pKi: −log10 of the molar value.

>>> recorded_measurement("CN[C@@H](C)C(=O)N[C@H](C(=O)N1CCC[C@H]1CN(CCc1ccc(F)cc1)C(=O)c1nnc(-c2ccccc2)o1)C(C)(C)C [Compound 117]")
"> 6.00"
>>> recorded_measurement("CN[C@@H](C)C(=O)N[C@H](C(=O)N1CCC[C@H]1CN(CCc1ccc(F)cc1)C(=O)c1cn(-c2ccc(F)cc2)cn1)C1CCCCC1 [Compound 104]")
"> 6.60"
>>> recorded_measurement("CN[C@@H](C)C(=O)N[C@H](C(=O)N1C[C@@H](Oc2ccc(OC)cc2)C[C@H]1CN(CCc1ccc(F)cc1)C(=O)c1cn(C)cn1)C(C)(C)C [Compound 96]")
"> 6.60"
>>> recorded_measurement("CN[C@@H](C)C(=O)N[C@H](C(=O)N1CCC[C@H]1CN(CCc1ccccc1)C(=O)c1cn2ccccc2n1)C1CCCCC1 [Compound 13]")
"> 6.60"
>>> recorded_measurement("CN[C@@H](C)C(=O)N[C@H](C(=O)N1CCC[C@H]1CN(CCc1ccc(F)cc1)C(=O)c1cn2cc(-c3ccccc3)ccc2n1)C(C)(C)C [Compound 48]")
"> 6.60"

Provide UniProt P98170 pKi reading for CN[C@@H](C)C(=O)N[C@H](C(=O)N1C[C@@H](NC(=O)c2ccccc2)C[C@H]1CN(CCc1ccc(F)cc1)C(=O)c1cn2ccccc2n1)C(C)(C)C [Compound 69] .
> 6.60

* * *

Below are pKi values measured for XIAP (Homo sapiens, UniProt P98170).
pKi: −log10 of the molar value.

>>> recorded_measurement("CN[C@@H](C)C(=O)N[C@H](C(=O)N1CCC[C@H]1CN(CCc1ccc(F)cc1)C(=O)c1cn2cccnc2n1)C(C)(C)C [Compound 10]")
"> 6.60"
>>> recorded_measurement("C[C@H](N)C(=O)N[C@H](C(=O)N1CCC[C@H]1CN(CCc1ccc(F)cc1)C(=O)c1cn2cccnc2n1)C(C)(C)C [Compound 37]")
"> 6.60"
>>> recorded_measurement("CCN[C@@H](C)C(=O)N[C@H](C(=O)N1CCC[C@H]1CN(CCc1ccccc1)C(=O)c1cn2cccnc2n1)C1CCCCC1 [Compound 2]")
"< 6.00"

Provide XIAP (Homo sapiens, UniProt P98170) pKi reading for CN[C@@H](C)C(=O)N[C@H](C(=O)N1CCC[C@H]1CN(CCc1ccc(F)cc1)C(=O)c1cn(-c2ccc(F)cc2)cn1)[C@@H](C)OC [Compound 72] .
> 6.60

Provide XIAP (Homo sapiens, UniProt P98170) pKi reading for CN[C@@H](C)C(=O)N[C@H](C(=O)N1C[C@@H](NC(=O)c2ccccc2)C[C@H]1CN(CCc1ccc(F)cc1)C(=O)c1cn(C)cn1)C(C)(C)C [Compound 86] .
> 6.60

Provide XIAP (Homo sapiens, UniProt P98170) pKi reading for CN[C@@H](C)C(=O)N[C@H](C(=O)N1CCC[C@H]1CN(CCc1ccccc1)C(=O)c1cn2c(n1)CCCC2)C(C)(C)C [Compound 15] .
> 6.60

Provide XIAP (Homo sapiens, UniProt P98170) pKi reading for CN[C@@H](C)C(=O)N[C@@H](COC)C(=O)N1CCC[C@H]1CN(CCc1ccc(F)cc1)C(=O)c1cn2ccccc2n1 [Compound 60] .
> 6.00

Provide XIAP (Homo sapiens, UniProt P98170) pKi reading for CN[C@@H](C)C(=O)N[C@H](C(=O)N1CCC[C@H]1CN(CCc1ccccc1)C(=O)c1cn2ccccc2n1)C(C)(C)C [Compound 7] .
> 6.60

Where these numbers come from: patent US9284350B2
